target: activated MMP-8 enzyme (Homo sapiens); experiment: Assay for determining MMP-8 inhibition (fluorescent substrate); conditions: Table 2, activity group
Sequence (P22894 101-467): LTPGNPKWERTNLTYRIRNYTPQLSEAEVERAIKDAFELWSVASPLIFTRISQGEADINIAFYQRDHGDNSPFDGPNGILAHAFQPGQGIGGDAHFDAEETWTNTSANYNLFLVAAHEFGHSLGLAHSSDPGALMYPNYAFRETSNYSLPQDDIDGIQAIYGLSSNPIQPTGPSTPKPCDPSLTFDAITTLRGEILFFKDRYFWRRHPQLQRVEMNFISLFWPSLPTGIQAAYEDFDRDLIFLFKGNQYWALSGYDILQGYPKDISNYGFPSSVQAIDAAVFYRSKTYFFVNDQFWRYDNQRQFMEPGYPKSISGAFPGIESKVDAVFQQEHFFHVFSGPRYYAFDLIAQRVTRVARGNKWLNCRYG
pIC50: −log10 of the molar value.
measured-property: pIC50

compound: O=C1COc2ccc(CNC(=O)c3nc4sc5c(c4c(=O)[nH]3)C(C(=O)NCc3ccccc3)CC5)cc2N1 (centres unmarked) [2/167]
value-observed: > 6.60

compound: Cc1cc(CNC(=O)c2nc3sc4c(c3c(=O)[nH]2)CCS(=O)(=O)C4)ccc1F [2/130]
value-observed: 4.70 to 6.60

compound: O=C1COc2ccc(CNC(=O)c3nc4sc5c(c4c(=O)[nH]3)CC(C(=O)O)C5)cc2N1 (centres unmarked) [4/15]
value-observed: > 6.60

compound: CC(C)(C)OC(=O)CNC(=O)C1CCc2sc3nc(C(=O)NCc4ccc5c(c4)NC(=O)CO5)[nH]c(=O)c3c21 (centres unmarked) [2/224]
value-observed: > 6.60

compound: O=C(NCc1cccc(N2CCSCC2)c1)c1nc2sc3c(c2c(=O)[nH]1)CCC3 [2/528]
value-observed: 4.70 to 6.60

Quick batch: pIC50 for everything below.
1. CC(NC(=O)C1CCc2sc3nc(C(=O)NCc4ccc5c(c4)NC(=O)CO5)[nH]c(=O)c3c21)c1ccccc1 (centres unmarked) [2/175]
2. CC1SCc2sc3nc(C(=O)NCc4ccc5c(c4)CN(c4c(N)c(=O)c4=O)CC5)[nH]c(=O)c3c21 (centres unmarked) [2/132]
3. O=C(NCc1ccc(F)cc1)c1nc2sc3c(c2c(=O)[nH]1)CCC3 [2/290]
4. COc1cccc(CNC(=O)c2nc3sc4c(c3c(=O)[nH]2)CCS(=O)(=O)C4)c1 [2/129]
5. Cc1ccc(CNC(=O)C2CCc3sc4nc(C(=O)NCc5ccc6c(c5)NC(=O)CO6)[nH]c(=O)c4c32)cc1 (centres unmarked) [2/174]
6. O=C1COc2ccc(CNC(=O)c3nc4sc5c(c4c(=O)[nH]3)CCS5)cc2N1 [2/121]
7. O=C(NCc1ccc2c(c1)OCO2)c1nc2sc3c(c2c(=O)[nH]1)CCC3 [2/382]

Response given:
["> 6.60", "> 6.60", "4.70 to 6.60", "4.70 to 6.60", "> 6.60", "> 6.60", "4.70 to 6.60"]
